SYSTEM TESTED: Estrogen receptor beta (Homo sapiens)
Sequence (Q92731 whole entry): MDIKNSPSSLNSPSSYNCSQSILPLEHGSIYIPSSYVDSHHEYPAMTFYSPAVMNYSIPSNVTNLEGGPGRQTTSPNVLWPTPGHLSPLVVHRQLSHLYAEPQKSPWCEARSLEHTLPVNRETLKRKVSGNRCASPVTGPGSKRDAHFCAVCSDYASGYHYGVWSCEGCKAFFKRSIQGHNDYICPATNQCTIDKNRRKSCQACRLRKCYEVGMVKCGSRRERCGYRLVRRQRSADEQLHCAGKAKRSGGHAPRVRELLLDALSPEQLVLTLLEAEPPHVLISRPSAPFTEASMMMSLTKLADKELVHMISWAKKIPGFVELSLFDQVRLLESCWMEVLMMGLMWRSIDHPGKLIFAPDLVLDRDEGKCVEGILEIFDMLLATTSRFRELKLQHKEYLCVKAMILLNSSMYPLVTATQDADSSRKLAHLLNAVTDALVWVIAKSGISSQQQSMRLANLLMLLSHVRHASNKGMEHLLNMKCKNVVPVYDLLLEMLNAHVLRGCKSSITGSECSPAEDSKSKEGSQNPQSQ
pIC50: −log10 of the molar value.
Please provide measured pIC50 for the entries that follow.

> print(dat)
                              smiles.record  measured.value
1  CC1(C)C(=O)CC[C@]2(C)[C@@]3(C)c4[nH]c5ccccc5c4C[C@@H]3CC[C@@]12O          < 5.00

[in] Any idea what its pIC50 is? The molecule is "CC1(C)[C@H](O)CC[C@]2(C)[C@@]3(C)c4[nH]c5ccccc5c4C[C@@H]3CC[C@@]12O"
[out] < 5.52

----------
SYSTEM TESTED: Estrogen receptor (Homo sapiens)
Sequence (P03372 whole entry): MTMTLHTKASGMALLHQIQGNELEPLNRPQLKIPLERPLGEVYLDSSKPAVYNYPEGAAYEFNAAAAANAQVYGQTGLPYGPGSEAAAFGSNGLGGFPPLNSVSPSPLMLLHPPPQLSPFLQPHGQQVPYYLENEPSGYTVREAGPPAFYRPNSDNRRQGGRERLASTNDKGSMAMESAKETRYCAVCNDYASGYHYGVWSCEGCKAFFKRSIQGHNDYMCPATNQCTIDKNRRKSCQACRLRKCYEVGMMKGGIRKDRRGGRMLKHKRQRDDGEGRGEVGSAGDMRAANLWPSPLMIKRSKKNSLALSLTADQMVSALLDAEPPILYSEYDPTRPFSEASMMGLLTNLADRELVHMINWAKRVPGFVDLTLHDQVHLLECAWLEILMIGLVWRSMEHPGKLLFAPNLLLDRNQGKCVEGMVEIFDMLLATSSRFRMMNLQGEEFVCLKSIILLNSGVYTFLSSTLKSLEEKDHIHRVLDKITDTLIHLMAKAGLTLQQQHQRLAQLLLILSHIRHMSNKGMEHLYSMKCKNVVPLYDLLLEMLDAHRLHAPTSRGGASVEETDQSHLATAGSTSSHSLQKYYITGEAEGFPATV
ASSAY SUMMARY: Agonist activity at estrogen receptor alpha ligand binding domain expressed in african green monkey COS7 cells co-transfected with Gal4-LBD by luciferase reporter gene assay
pEC50: −log10 of the molar value.
METRIC NAME: pEC50

> print(dat)
                              smiles.record                     system.tested  metric.name  measured.value
1  CC1(C)[C@H](O)CC[C@]2(C)[C@@]3(C)c4[nH]c5ccccc5c4C[C@@H]3CC[C@@]12O  Estrogen receptor (Homo sapiens)        pEC50          < 5.00

[in] Any idea what its pEC50 is? The compound is "CC1(C)C(=O)CC[C@]2(C)[C@@]3(C)c4[nH]c5ccccc5c4C[C@@H]3CC[C@@]12O"
[out] < 5.00
